Entry source: patent US20150045540A1

target: Hepatocyte Growth Factor (HGF), human (human, UniProt P14210 32-728); assay: ELISA
Sequence (P14210 32-728): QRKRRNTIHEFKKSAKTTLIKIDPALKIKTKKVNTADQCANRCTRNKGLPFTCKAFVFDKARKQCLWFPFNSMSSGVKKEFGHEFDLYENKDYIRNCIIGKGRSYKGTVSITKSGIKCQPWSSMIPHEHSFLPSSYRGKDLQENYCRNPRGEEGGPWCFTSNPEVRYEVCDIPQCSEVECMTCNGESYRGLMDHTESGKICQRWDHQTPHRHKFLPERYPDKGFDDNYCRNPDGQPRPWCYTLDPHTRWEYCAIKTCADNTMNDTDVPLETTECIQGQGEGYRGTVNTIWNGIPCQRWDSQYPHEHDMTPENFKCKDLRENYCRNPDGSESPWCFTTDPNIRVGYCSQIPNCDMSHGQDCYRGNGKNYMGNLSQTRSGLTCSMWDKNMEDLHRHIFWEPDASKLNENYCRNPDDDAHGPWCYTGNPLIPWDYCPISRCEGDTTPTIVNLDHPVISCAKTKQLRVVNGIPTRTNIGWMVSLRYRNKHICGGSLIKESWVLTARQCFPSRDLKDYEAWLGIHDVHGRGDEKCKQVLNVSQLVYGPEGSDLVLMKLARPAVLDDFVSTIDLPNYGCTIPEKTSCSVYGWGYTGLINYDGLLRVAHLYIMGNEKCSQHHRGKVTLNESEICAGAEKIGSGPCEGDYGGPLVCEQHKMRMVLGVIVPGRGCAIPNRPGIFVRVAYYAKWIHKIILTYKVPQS
# EC50 per record follows
Answer in pM, number only, no unit symbol.

Example entries and their recorded answers appear below.
• HC 9/SLC 6 (antibody) chain 1: GQGTLVTVSSASTKGPSVFQPVLHQPPAMSSALGTTIRLTCTLRNDHDIGVYSVYWYQQRPGHPPRFLLRYFSQSDKSQGPQVPPRFSGSKDVARNRGYLSISELQPEDEAMYYCAMGARSRCWPRGFQSKHNSVTHVFGSGTQLTVLSQPKATPSVTLFPPSSEELQANKATLVCLMNDFYPGILTVTWKADGTPITQGVEMTTPSKQSNNKYAASSYLSLTPEQWRSRRSYSCQVMHEGSTVEKTVAPAECS chain 2: MSWAPVLLMLFVYCTGCGPQPVLHQPPAMSSALGTTIRLTCTLRNDHDIGVYSVYWYQQRPGHPPRFLLRYFSQSDKSQGPQVPPRFSGSKDVARNRGYLSISVTHVFGSGTQLTVLSQPKATQVQLVQ = 59
• HC 7/SLC 3 (antibody) chain 1: GQGTLVTVSSASTKGPSQPVLHQPPAMSSALGTTIRLTCTLRNDHDIGVYSVYWYQQRPGHPPRFLLRYFSQSDKSQGPQVPPRFSGSKDVARNRGYLSISELQPEDEAMYYCAMGARSRCWPRGFQSKHNSVTHVFGSGTQLTVLSQPKATPSVTLFPPSSEELQANKATLVCLMNDFYPGILTVTWKADGTPITQGVEMTTPSKQSNNKYAASSYLSLTPEQWRSRRSYSCQVMHEGSTVEKTVAPAECS chain 2: MSWAPVLLMLFVYCTGCGPQPVLHQPPAMSSALGTTIRLTCTLRNDHDIGVYSVYWYQQRPGHPPRFLLRYFSQSDKSQGPQVPPRFSGSKDVARNRGYLSISVTHVFGSGTQLTVLSQPQVQLVQ = 67
• HC 3/SLC 8 (antibody) chain 1: GQGTLVTVSSASTQPVLHQPPAMSSALGTTIRLTCTLRNDHDIGVYSVYWYQQRPGHPPRFLLRYFSQSDKSQGPQVPPRFSGSKDVARNRGYLSISELQPEDEAMYYCAMGARSRCWPRGFQSKHNSVTHVFGSGTQLTVLSQPKATPSVTLFPPSSEELQANKATLVCLMNDFYPGILTVTWKADGTPITQGVEMTTPSKQSNNKYAASSYLSLTPEQWRSRRSYSCQVMHEGSTVEKTVAPAECS chain 2: MSWAPVLLMLFVYCTGCGPQPVLHQPPAMSSALGTTIRLTCTLRNDHDIGVYSVYWYQQRPGHPPRFLLRYFSQSDKSQGPQVPPRFSGSKDVARNRGYLSISVTHVFGSGTQLTVLSQPKATPSQVQLVQ = 56
• HC 4/SLC 3 (antibody) chain 1: GQGTLVTVSSASTKQPVLHQPPAMSSALGTTIRLTCTLRNDHDIGVYSVYWYQQRPGHPPRFLLRYFSQSDKSQGPQVPPRFSGSKDVARNRGYLSISELQPEDEAMYYCAMGARSRCWPRGFQSKHNSVTHVFGSGTQLTVLSQPKATPSVTLFPPSSEELQANKATLVCLMNDFYPGILTVTWKADGTPITQGVEMTTPSKQSNNKYAASSYLSLTPEQWRSRRSYSCQVMHEGSTVEKTVAPAECS chain 2: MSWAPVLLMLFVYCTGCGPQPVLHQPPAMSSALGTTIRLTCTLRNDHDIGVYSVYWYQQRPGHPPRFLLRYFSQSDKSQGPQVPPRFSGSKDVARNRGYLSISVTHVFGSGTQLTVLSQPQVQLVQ = 60
• HC 6/SLC 6 (antibody) chain 1: GQGTLVTVSSASTKGPQPVLHQPPAMSSALGTTIRLTCTLRNDHDIGVYSVYWYQQRPGHPPRFLLRYFSQSDKSQGPQVPPRFSGSKDVARNRGYLSISELQPEDEAMYYCAMGARSRCWPRGFQSKHNSVTHVFGSGTQLTVLSQPKATPSVTLFPPSSEELQANKATLVCLMNDFYPGILTVTWKADGTPITQGVEMTTPSKQSNNKYAASSYLSLTPEQWRSRRSYSCQVMHEGSTVEKTVAPAECS chain 2: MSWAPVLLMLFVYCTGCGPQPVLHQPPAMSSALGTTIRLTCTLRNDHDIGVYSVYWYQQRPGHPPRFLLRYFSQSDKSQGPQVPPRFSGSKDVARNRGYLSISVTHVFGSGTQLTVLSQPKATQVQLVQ = 61

Now look at this entry.
Request: Entry HC 7/SLC 4 (antibody) chain 1: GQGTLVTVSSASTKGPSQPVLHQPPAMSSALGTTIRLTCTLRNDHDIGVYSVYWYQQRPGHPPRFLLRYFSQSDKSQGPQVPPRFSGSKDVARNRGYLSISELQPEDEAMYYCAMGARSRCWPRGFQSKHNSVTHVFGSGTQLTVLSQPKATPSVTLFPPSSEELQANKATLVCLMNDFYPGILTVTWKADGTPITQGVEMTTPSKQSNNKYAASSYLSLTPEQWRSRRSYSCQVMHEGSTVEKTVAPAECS chain 2: MSWAPVLLMLFVYCTGCGPQPVLHQPPAMSSALGTTIRLTCTLRNDHDIGVYSVYWYQQRPGHPPRFLLRYFSQSDKSQGPQVPPRFSGSKDVARNRGYLSISVTHVFGSGTQLTVLSQPKQVQLVQ : reported EC50 = ?
Result: 65
